# Test system: NCI/ADR-RES
# ASSAY METHOD TEXT: NCI tumour cell line growth inhibition, 48 h
The source made the active and inactive calls. Rule as the data show it: active = GI50 up to about 1.1 µM and inactive = higher.
// one of active, inactive, no free text

QUERY: Outcome logged for CC(C)=CCC[C@@H](C)C1=C(Nc2ccccc2)C(=O)C(C)=C(O)C1=O in this assay:
RESULT: active

QUERY: Outcome logged for O=c1[nH]c(=O)n(COCc2ccccc2)cc1Nc1ccc(Br)cc1 in this assay:
RESULT: inactive

QUERY: Outcome logged for [N-]=[N+]=NCC(=O)c1cnc(O)nc1O in this assay:
RESULT: inactive

QUERY: Outcome logged for CN(C)c1cccc(OC(=O)NCCCl)c1 in this assay:
RESULT: inactive

QUERY: Outcome logged for CSC(=S)N(C)C in this assay:
RESULT: inactive

QUERY: Outcome logged for COc1cccc(C2CC(C)(O)Oc3cc4c(cc32)OCO4)c1 (stereo unspecified) in this assay:
RESULT: inactive

----------
# Test system: U-251
# ASSAY METHOD TEXT: NCI tumour cell line growth inhibition, 48 h
Calls of active or inactive are those of the source. Rule as the data show it: active = GI50 up to about 1.1 µM and inactive = higher.
Field: GI50. Provide a value for each of the compounds that follow.

QUERY: Please look up its GI50: N#Cc1cc([N+](=O)[O-])ccc1NC(=O)C(=O)C(C(=O)c1ccc2ccccc2c1)C1OCc2ccccc21 (stereo unspecified)
RESULT: 4 µM (inactive)

QUERY: Please look up its GI50: CC(C)=CCc1c2c(c3occ(-c4ccc(O)c(O)c4)c(=O)c3c1O)C=CC(C)(C)O2
RESULT: 1.48 µM (inactive)

QUERY: Please look up its GI50: c1ccc2c(c1)SC(=C1Sc3ccccc3S1)S2
RESULT: > 100 µM (inactive)

QUERY: Please look up its GI50: Cc1cc(Cl)nc(NC(=O)CSc2ccc(Cl)cc2)n1
RESULT: > 100 µM (inactive)

QUERY: Please look up its GI50: CCN(CC)c1ccc(/C=C(\C#N)c2nc(N)nc(N3N=C(C)CC3(C)C)n2)cc1
RESULT: 13.3 µM (inactive)

QUERY: Please look up its GI50: COC1(OC)C2(Cl)C(Cl)=C(Cl)C1(Cl)C1c3ccc(C(C)=O)c4cccc(c34)C12 (stereo unspecified)
RESULT: 30.3 µM (inactive)

QUERY: Please look up its GI50: C/C=C/CC(S(=O)(=O)c1ccccc1)S(=O)(=O)c1ccccc1
RESULT: 33.3 µM (inactive)

QUERY: Please look up its GI50: Nc1cc2nc(-c3ccccc3)cn2cn1
RESULT: > 100 µM (inactive)

QUERY: Please look up its GI50: COC(=O)Cc1c(C2C(CC(=O)OC)c3ccccc3N2C2OC(CO)C(O)C(O)C2O)[nH]c2ccccc12 (stereo unspecified)
RESULT: > 100 µM (inactive)

QUERY: Please look up its GI50: COC12C=CC(CC1)C1C(=O)c3c(C)c(C)n(C)c3C(=O)C12 (stereo unspecified)
RESULT: > 100 µM (inactive)

QUERY: Please look up its GI50: CC1(C)CC(=O)c2c(nc3c(ccc4ccccc43)c2-c2ccc(NC(=O)CCC(=O)Nc3ccc(-c4c5c(nc6c4ccc4ccccc46)CC(C)(C)CC5=O)cc3)cc2)C1
RESULT: > 100 µM (inactive)

QUERY: Please look up its GI50: CN(/N=N/c1[nH]cnc1C(N)=O)C1CCCCC1
RESULT: > 100 µM (inactive)

QUERY: Please look up its GI50: CC1=NN2C(c3ccc([N+](=O)[O-])cc3)=CSC2=NC(C)(C)C1
RESULT: > 100 µM (inactive)

QUERY: Please look up its GI50: O=C(CSc1nc2ccc(I)cc2c(=O)n1Cc1ccccc1)N/N=C/c1ccccc1
RESULT: 11.4 µM (inactive)

QUERY: Please look up its GI50: CC1OC(OC2C[C@](O)(C(=O)CBr)Cc3c(O)c4c(c(O)c32)C(=O)c2ccccc2C4=O)C(F)C(O)C1O (stereo partly specified)
RESULT: 5.83 µM (inactive)

QUERY: Please look up its GI50: COc1cc(-c2nc(SC)nc3c2CCc2ccccc2-3)cc(OC)c1OC
RESULT: 93.1 µM (inactive)

QUERY: Please look up its GI50: COC1=CC(=O)c2nc3ccccc3c3ccnc1c23
RESULT: 5.05 µM (inactive)

QUERY: Please look up its GI50: COc1cc2c(cc1OC)C1C3CCCCC3CCN1CC2 (stereo unspecified)
RESULT: > 100 µM (inactive)

QUERY: Please look up its GI50: NNC1=NC(=O)NC(=O)C1
RESULT: > 100 µM (inactive)

QUERY: Please look up its GI50: C[n+]1ccc2[nH]c3ccccc3c2c1
RESULT: > 100 µM (inactive)

QUERY: Please look up its GI50: CC(C)=NNc1cnnc2ccc([N+](=O)[O-])cc12
RESULT: > 100 µM (inactive)

----------
# Tested on: HOP-62
# ASSAY METHOD TEXT: NCI tumour cell line growth inhibition, 48 h
Active and inactive are the calls of the source. Rule as the data show it: active = GI50 up to about 1.1 µM and inactive = higher.
// one of active, inactive, no free text

QUERY: Outcome logged for CCC/C(=N\NC(=S)N1CC2CCC(CC2)C1)c1ccccn1 in this assay:
RESULT: active

QUERY: Outcome logged for C[C@H](CCC(=O)O)[C@H]1CC[C@H]2[C@@H]3[C@@H](O)C[C@@H]4C[C@H](O)CC[C@]4(C)[C@H]3CC[C@]12C in this assay:
RESULT: inactive

QUERY: Outcome logged for S=c1[nH]nc(Cc2ccccc2)c(=S)[nH]1 in this assay:
RESULT: inactive

QUERY: Outcome logged for COC(=O)C1(C(=O)OC)N=C(C)OC1c1ccoc1 (centres undefined) in this assay:
RESULT: inactive

QUERY: Outcome logged for N#CNCC(COCc1ccccc1)c1ccccc1 (centres undefined) in this assay:
RESULT: inactive

QUERY: Outcome logged for N#CC1(Cc2ccc(N)cc2)c2ccccc2C=CN1C(=O)c1ccccc1 (centres undefined) in this assay:
RESULT: inactive

QUERY: Outcome logged for CCOC(=O)CNC(=O)CNC(=O)CNC(=O)CNNc1c(OCc2ccccc2)c(=O)c1=O in this assay:
RESULT: inactive

QUERY: Outcome logged for CC/C=C\C/C=C\C/C=C\CCCCCCCC(=O)OC(COC(=O)CCCCCCCCCCCCCCCCC)COC1OC(CO)C(O)C(O)C1O (centres undefined) in this assay:
RESULT: inactive

QUERY: Outcome logged for COc1ccc(C23c4ccc(OC)cc4CC2(c2ccc([N+](=O)[O-])cc2)Cc2cc(OC)ccc23)cc1 (centres undefined) in this assay:
RESULT: inactive

----------
# Tested on: SK-MEL-28
# ASSAY METHOD TEXT: NCI tumour cell line growth inhibition, 48 h
Activity calls are given as the source filed them. Rule as the data show it: active = GI50 up to about 1.1 µM and inactive = higher.
// one of active, inactive, no free text

QUERY: Outcome logged for Cc1cc(C2CC(O)C(CO)O2)c(F)cc1F (stereo not drawn) in this assay:
RESULT: inactive

QUERY: Outcome logged for CCC/C(=N\NC(=S)N1CC2CCC(CC2)C1)c1ccccn1 in this assay:
RESULT: active

QUERY: Outcome logged for C/C=C/CC(S(=O)(=O)c1ccccc1)S(=O)(=O)c1ccccc1 in this assay:
RESULT: inactive

QUERY: Outcome logged for CN(C)CC1CCC/C1=N/OC(=O)c1ccccc1 (stereo not drawn) in this assay:
RESULT: inactive

QUERY: Outcome logged for O=C1c2cc(-c3ccccc3)cnc2S(=O)(=O)N1c1ccc(Br)cc1 in this assay:
RESULT: inactive

QUERY: Outcome logged for COC(=O)C(Cc1c[nH]c2ccccc12)NC(=O)C(Cc1c[nH]cn1)NC(=O)C1CCC(=O)N1C(=O)OCc1ccccc1 (stereo not drawn) in this assay:
RESULT: inactive

QUERY: Outcome logged for CC(=O)n1nc(-c2nc3ccccc3nc2Cl)cc1Cl in this assay:
RESULT: inactive

QUERY: Outcome logged for O=C(CCN1CCOCC1)C(=Cc1ccccc1)C(=O)CCN1CCOCC1 in this assay:
RESULT: inactive

----------
# System: HT-29
# ASSAY METHOD TEXT: NCI tumour cell line growth inhibition, 48 h
The source made the active and inactive calls. No stated cut-off is given here; in the data, active = GI50 up to about 1.1 µM and inactive = higher.
Field: GI50. Provide a value for each of the molecules that follow.

QUERY: Report GI50 for Cc1nnc2n1N=C(c1cc(F)c(Cl)cc1Cl)/C(=C/c1ccc(Cl)cc1)S2 tested on HT-29.
RESULT: 11.7 µM (inactive)

QUERY: Report GI50 for C(=C\c1nccs1)/c1cccc(/C=C/c2nccs2)n1 tested on HT-29.
RESULT: > 50 µM (inactive)

QUERY: Report GI50 for Cc1cc2c(cc1C)[n+]([O-])c(C(F)(F)F)c(C(=O)c1ccccc1)[n+]2[O-] tested on HT-29.
RESULT: 1.71 µM (inactive)

QUERY: Report GI50 for CC1=CC[C@H](C[C@H](C#CCCCC2OCCO2)O[Si](C(C)C)(C(C)C)C(C)C)C(=O)CC1 tested on HT-29.
RESULT: > 100 µM (inactive)

QUERY: Report GI50 for CN1CCN(CCCCN2c3ccccc3Sc3cc(N=[N+]=[N-])ccc32)CC1 tested on HT-29.
RESULT: 1.61 µM (inactive)

QUERY: Report GI50 for CC(=O)Nc1ncc(Sc2ccccc2C(=O)O)s1 tested on HT-29.
RESULT: > 100 µM (inactive)

QUERY: Report GI50 for O=C(NC1C2CC3CC(C2)CC1C3)c1ccncn1 (stereo not drawn) tested on HT-29.
RESULT: > 100 µM (inactive)

QUERY: Report GI50 for O=C1CCc2cc3c(cc21)CC1(Cc2cc4c(cc2C1)CCCC4)C3 tested on HT-29.
RESULT: 34.8 µM (inactive)

QUERY: Report GI50 for c1ccc2c(c1)SC(=C1Sc3ccccc3S1)S2 tested on HT-29.
RESULT: > 100 µM (inactive)

QUERY: Report GI50 for NC1=NC(c2ccc(Cl)cc2)N(c2ccc(S(N)(=O)=O)cc2)C(N)=N1 (stereo not drawn) tested on HT-29.
RESULT: > 100 µM (inactive)

QUERY: Report GI50 for Cc1cc(/N=N/c2ccc(/N=N/c3c(O)c(S(=O)(=O)O)cc4cc(S(=O)(=O)O)ccc34)cc2C)ccc1/N=N/c1ccc2cc(S(=O)(=O)O)cc(S(=O)(=O)O)c2c1 tested on HT-29.
RESULT: > 31.6 µM (inactive)

QUERY: Report GI50 for CC(C)c1cc2c(O)c(c1)Cc1cc(C(C)C)cc(c1O)Cc1cc(C(C)C)cc(c1O)Cc1cc(C(C)C)cc(c1O)Cc1cc(C(C)C)cc(c1O)Cc1cc(C(C)C)cc(c1O)C2 tested on HT-29.
RESULT: > 100 µM (inactive)

QUERY: Report GI50 for CC1C(=O)C(C)C(c2ccccc2)N(C)C1c1ccccc1 (stereo not drawn) tested on HT-29.
RESULT: 47.6 µM (inactive)

QUERY: Report GI50 for CC1=C(C(=O)Nc2ccccc2)C(c2ccccc2Cl)C(C(=O)Nc2ccccc2)=C(C)N1 tested on HT-29.
RESULT: 21 µM (inactive)

QUERY: Report GI50 for CC(C)(C)c1ccc(S(=O)(=O)N2C(c3cccc(C4CC[C@@H](C(=O)O)N4S(=O)(=O)c4ccc(C(C)(C)C)cc4)c3)CC[C@H]2C(=O)O)cc1 (stereo partly drawn) tested on HT-29.
RESULT: 47.8 µM (inactive)

QUERY: Report GI50 for N#CCc1cccc(CC#N)c1Br tested on HT-29.
RESULT: > 100 µM (inactive)

QUERY: Report GI50 for CC1=NN2C(c3ccc([N+](=O)[O-])cc3)=CSC2=NC(C)(C)C1 tested on HT-29.
RESULT: > 100 µM (inactive)

QUERY: Report GI50 for Cc1cc2cc3c(cc2c(-c2ccc(N)cc2)n1)OCO3 tested on HT-29.
RESULT: 22.2 µM (inactive)

QUERY: Report GI50 for COCN1C(=O)[C@@H]2CCCN2C(=O)c2ccc([N+](=O)[O-])cc21 tested on HT-29.
RESULT: > 100 µM (inactive)

QUERY: Report GI50 for C[C@@H](CC(O)C1OC1(C)C)[C@@H]1CC[C@]2(C)C3=CCC4C(C)(C)C(O)CC[C@]4(C)C3CCC12C (stereo partly drawn) tested on HT-29.
RESULT: 11.4 µM (inactive)

QUERY: Report GI50 for Cc1sc2c(c1C)C(=O)c1cccn1-2 tested on HT-29.
RESULT: 53.8 µM (inactive)

QUERY: Report GI50 for O=c1c2ccc3cccc4c(=O)cc(c5ccccc15)-c2c34 tested on HT-29.
RESULT: > 100 µM (inactive)

QUERY: Report GI50 for CCOC(=O)/C=C/[C@@H](CC)O[Si](C(C)C)(C(C)C)C(C)C tested on HT-29.
RESULT: > 100 µM (inactive)

QUERY: Report GI50 for CC(C)=NNc1cnnc2ccc([N+](=O)[O-])cc12 tested on HT-29.
RESULT: > 100 µM (inactive)

QUERY: Report GI50 for CN/N=C(/c1nc2ccc([N+](=O)[O-])cc2nc1O)C(O)c1ccc(C(O)/C(=N\NC)c2nc3ccc([N+](=O)[O-])cc3nc2O)cc1 (stereo not drawn) tested on HT-29.
RESULT: > 100 µM (inactive)

QUERY: Report GI50 for Cc1cc2c(O)c(c1)CN(CC(=O)O)Cc1cc(C)cc(c1O)CN(CC(=O)O)Cc1cc(C)cc(c1O)CN(CC(=O)O)C2 tested on HT-29.
RESULT: > 100 µM (inactive)

QUERY: Report GI50 for COc1nc(NC2OC(COC(C)=O)C(OC(C)=O)C(OC(C)=O)C2OC(C)=O)c2c(OC(C)=O)cc(=O)oc2n1 (stereo not drawn) tested on HT-29.
RESULT: > 100 µM (inactive)

QUERY: Report GI50 for CCOC(=O)c1cnc2c(ccc3ncccc32)c1NCCCN(CC)CC tested on HT-29.
RESULT: 39.1 µM (inactive)
